- target entity: p38 MAPKα isoform (MAPK14) (Homo sapiens (Human), UniProt Q16539)
- Sequence (Q16539 whole entry, canonical isoform): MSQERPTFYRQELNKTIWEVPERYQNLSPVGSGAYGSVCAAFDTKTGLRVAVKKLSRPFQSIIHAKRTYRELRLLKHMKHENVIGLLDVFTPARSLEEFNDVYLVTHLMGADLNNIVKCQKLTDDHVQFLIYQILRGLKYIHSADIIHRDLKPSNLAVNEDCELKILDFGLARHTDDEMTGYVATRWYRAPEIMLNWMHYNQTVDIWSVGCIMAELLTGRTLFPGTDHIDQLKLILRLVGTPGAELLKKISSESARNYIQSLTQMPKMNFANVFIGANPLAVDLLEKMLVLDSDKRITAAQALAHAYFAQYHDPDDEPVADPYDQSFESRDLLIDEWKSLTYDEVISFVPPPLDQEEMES
- protocol details: p38 MAPKα enzyme inhibition (FRET, Z-LYTE), Method 1
- Assay type: biochemical
- test conditions: Method 1 (Table 4a1)
Listing: pIC50 of selected molecules
Reminder that pIC50 is minus the log10 of a molar concentration.

Worked examples follow.
INSERT INTO results (molecule, property, obs_value) VALUES
  ('COc1cc(Nc2nccc(Oc3ccc(NC(=O)Nc4cc(C(C)C)nn4-c4ccc(C)cc4)c4ccccc34)n2)cc(C(=O)NCCN(C)C)c1 [Example 5]', 'pIC50', 9.00),
  ('Cc1ccc(-n2nc(C(C)(C)C)cc2NC(=O)Nc2ccc(Oc3ccnc(Nc4cccc(C(=O)NCCN(C)C)c4)n3)c3ccccc23)cc1 [Example 18]', 'pIC50', 7.92),
  ('COc1cc(Nc2nccc(Oc3ccc(NC(=O)Nc4cc(C(C)C)nn4-c4ccc(C)cc4)c4ccccc34)n2)cc(C(=O)N2CCOCC2)c1 [Example 12]', 'pIC50', 8.22),
  ('CCCNC(=O)c1cccc(Nc2nccc(Oc3ccc(NC(=O)Nc4cc(C(C)(C)C)nn4-c4ccc(OC)cc4)c4ccccc34)n2)c1 [Example 17]', 'pIC50', 7.27),
  ('Cc1ccc(-n2nc(C(C)(C)C)cc2NC(=O)Nc2ccc(Oc3ccnc(Nc4cc(C)cc(C(N)=O)c4)n3)c3ccccc23)cc1 [Example 40]', 'pIC50', 7.28),
  ('COc1cc(Nc2nccc(Oc3ccc(NC(=O)Nc4cc(C(F)(F)C(F)(F)F)nn4-c4ccc(C)cc4)c4ccccc34)n2)cc(C(=O)NCCN2CCOCC2)c1 [Example 9]', 'pIC50', 7.31);

What value of measured pIC50 is listed for COc1ccc(-n2nc(C(C)(C)C)cc2NC(=O)Nc2ccc(Oc3cc(Nc4cc(OC)cc(C(=O)NCCN5CCOCC5)c4)ncn3)c(C)c2C)cc1 [Example 91] ?
8.02

Item under review: COc1cc(Nc2nccc(Oc3ccc(NC(=O)Nc4cc(C(C)C)nn4-c4ccc(C)cc4)c4ccccc34)n2)cc(C(=O)NCCN2CCOCC2)c1 [Example 8] . Reported pIC50?
8.70

# lookup: pIC50 of COCCNC(=O)c1cc(Nc2nccc(Oc3ccc(NC(=O)Nc4cc(C(C)C)nn4-c4ccc(OC)cc4)c4ccccc34)n2)cc(OC)c1 [Example 11]
7.60

Entry COc1cc(Nc2nccc(Oc3ccc(NC(=O)Nc4cc(C(C)C)nn4-c4ccc(OC)nc4)c4ccccc34)n2)cc(C(=O)NCCN2CCOCC2)c1 [Example 10] : reported pIC50 = ?
8.22

Given the entry C=C(C)c1cc(NC(=O)Nc2ccc(Oc3ccnc(Nc4cc(OC)cc(C(=O)NCCN5CCOCC5)c4)n3)c3ccccc23)n(-c2ccc(OC)cc2)n1 [Example 86] , report its measured pIC50.
8.00

Looking for the measured pIC50 of CNC(=O)c1cccc(Nc2nccc(Oc3ccc(NC(=O)Nc4cc(C(C)(C)C)nn4-c4ccc(C)cc4)c4ccccc34)n2)c1 [Example 16] , can you help?
7.47
